Measured Euclidean distance accompanies every entry in the list below.
- Tested on: DU145
- Test Method Notes: Euclidean distance of Cell Painting phenotypic profile (signed KS, 77 features) to DMSO centroid (dimensionless distance); 5 or 10 uM (library dependent); higher = stronger phenotypic change vs DMSO (phenoactivity)
- Experimental Context: 48 h
Where a name gives a salt, the structure may show the parent alone.
Test Readout: Euclidean distance

>>> test_value("CC(CN1c2ccccc2Sc2ccccc21)N(C)C (centres undefined) [Promethazine HCl]")
1.47
>>> test_value("CC(C)(c1ccc(O)cc1)c1ccc(O)cc1 [Bisphenol A]")
0.773
>>> test_value("O=C(/C=C/c1ccc(O)c(O)c1)c1ccc(O)cc1O [Butein]")
1.12
>>> test_value("Nc1nc2[nH]cnc2c(=S)[nH]1 [Thioguanine]")
1.48
>>> test_value("CN(C)CCC=C1c2ccccc2C=Cc2ccccc21 [Cyclobenzaprine HCl]")
1.14
>>> test_value("Nc1ccn(C[C@@H](CO)OCP(=O)(O)O)c(=O)n1 [Cidofovir]")
1.14
>>> test_value("CC(C)NCC(O)COc1cccc2ccccc12 (centres undefined) [Propranolol HCl]")
0.949
>>> test_value("COc1ccc2cc3[n+](cc2c1OC)CCc1cc2c(cc1-3)OCO2 [Berberine Sulfate]")
1.4
>>> test_value("CC(=O)NS(=O)(=O)c1ccc(N)cc1 [Sulfacetamide sodium salt hydrate]")
0.872
>>> test_value("COC(=O)c1ccc2c(c1)NC(=O)/C2=C(\\Nc1ccc(N(C)C(=O)CN2CCN(C)CC2)cc1)c1ccccc1 [Nintedanib (BIBF 1120)]")
2.53
>>> test_value("CNCc1ccc(C)c(NC(=O)c2ccc(Nc3nc(-c4ccccc4)c4ccccc4n3)cc2)c1")
3.37
>>> test_value("CN1CCN(CC/C=C2/c3ccccc3Sc3ccc(S(=O)(=O)N(C)C)cc32)CC1 [Thiothixene]")
2.21
>>> test_value("COCCc1ccc(OCC(O)CNC(C)C)cc1 (centres undefined) [Metroprolol succinate]")
0.62
>>> test_value("O=C(O)Cc1ccccc1Nc1c(Cl)cccc1Cl [Diclofenac Diethylamine]")
0.728
>>> test_value("NCCOB(c1ccccc1)c1ccccc1 [2-Aminoethyl Diphenylborinate (2-APB)]")
1
>>> test_value("CCCCOc1cc(C(=O)NCCN(CC)CC)c2ccccc2n1 [Dibucaine HCl]")
1.23
>>> test_value("O=C1NC(=O)/C(=C/c2ccc(-c3ccc(F)cc3O)o2)S1")
1.25
>>> test_value("N#Cc1c(O)c2c(-c3ccc(-c4ccccc4O)cc3)csc2[nH]c1=O")
0.976
>>> test_value("NC1=NCC2c3ccccc3Cc3ccccc3N12 (centres undefined) [Epinastine HCl]")
1.13

The measured values listed here are drawn from the supplement of paper PMC10127200.
